System: K562
experiment.summary: Cytotoxicity against human K562 cells assessed as cell growth inhibition incubated for 48 hrs by sulforhodamine B reagent assay
Assay type: functional, cell-based
test.conditions: K562, 48 h
Overview of reported pIC50 across a group of molecules:
Entry type: numeric. Quantity: pIC50, the -log10 of concentration in molar units.

item_smiles=O=C1c2cccc3cccc(c23)C(=O)N1CCCCOc1ccc(-c2nc3ccc(N4CCOCC4)cc3[nH]2)cc1 system_name=K562 meas_value=6.96

Proceed to the following item.
Item: `CN1CCN(c2ccc3nc(-c4ccc(OCCCN5C(=O)c6cccc7cccc(c67)C5=O)cc4)[nH]c3c2)CC1` | pIC50: 6.96

----------
MIC reference
Tested on: Staphylococcus aureus
experiment.summary: Antibacterial activity against methicillin-resistant Staphylococcus aureus N315 assessed as inhibition of bacterial growth incubated for 24 hrs by two-fold serial dilution assay
Assay type: functional

item_smiles=O=C1c2cccc3c(Sc4nc5ccccc5n4Cc4cccc(Cl)c4)ccc(c23)C(=O)N1CCCCn1cncn1 property_label=MIC meas_value="> 512 µg/mL"
item_smiles=O=C1c2cccc3c(Sc4nc5ccccc5n4Cc4ccccc4Cl)ccc(c23)C(=O)N1CCCCn1cncn1 property_label=MIC meas_value="> 512 µg/mL"

Next molecule, MIC to be filled in.
Summary for this molecule, `O=C1c2cccc3c(Sc4nc5ccccc5n4Cc4ccc(F)cc4)ccc(c23)C(=O)N1CCCCn1cncn1` : MIC is > 512 µg/mL

----------
experiment.summary: Antiproliferative activity against human QSG7701 cells assessed as inhibition of cell proliferation incubated for 48 hrs by MTT assay
Assay type: toxicity, cell-based
property.label: IC50 at 48 h (µM)
Number in µM, nothing else.

Kindly note the recorded IC50 at 48 h for `CN(C)CCNCC(=O)Nc1cc2c3c(cccc3c1)C(=O)N(CCN(C)C)C2=O` , which is 6.42

Measured IC50 at 48 h of `CN(C)CCN1C(=O)c2cccc3cc(NC(=O)CNCCCCNCCCN)cc(c23)C1=O` : 6.42

----------
System: SGC-7901
experiment.summary: Cytotoxicity against human SGC-7901 cells assessed as inhibition of cell growth incubated for 48 hrs by MTT spectrophotometric assay
Type: functional, cell-based
test.conditions: SGC-7901, 48 h
pIC50: −log10 of the molar value.
property.label: pIC50

item_smiles=CN(C)CCN1C(=O)c2cccc3c(N4CCN(CCCO)CC4)ccc(c23)C1=O system_name=SGC-7901 property_label=pIC50 meas_value="> 5.15"

Below: the item to evaluate.
The reported value for `CN(C)CCN1C(=O)c2cccc3c(N4CCN(CCO)CC4)ccc(c23)C1=O` in terms of pIC50 is > 5.15

----------
Tested on: Calf thymus DNA
experiment.summary: Binding affinity to calf thymus DNA assessed as DNA intercalation by measuring change in melting temperature by thermal denaturation assay
Format: nucleic-acid assay
test.conditions: Bos taurus
property.label: ΔTm (°C)
Expressed in °C, but write only the number.

Example compounds with recorded ΔTm:
item_smiles=O=C1c2ccc3c4c(ccc(c24)C(=O)N1c1nc(-c2cc4cc(Cl)ccc4oc2=O)cs1)C(=O)N(c1nc(-c2cc4cc(Cl)ccc4oc2=O)cs1)C3=O system_name="Calf thymus DNA" property_label=ΔTm meas_value=24.3
item_smiles=CN(C)CCN1C(=O)c2cccc3c(NCCNCCNCCNCCN)ccc(c23)C1=O system_name="Calf thymus DNA" property_label=ΔTm meas_value=11.8
item_smiles=O=C1c2ccc3c4c(ccc(c24)C(=O)N1c1nc(-c2cc4ccccc4oc2=O)cs1)C(=O)N(c1nc(-c2cc4ccccc4oc2=O)cs1)C3=O system_name="Calf thymus DNA" property_label=ΔTm meas_value=0.1

Moving on to another compound below.
Memo: `O=C1c2cccc3cccc(c23)C(=O)N1c1nc(-c2cc3cc(Br)cc(Br)c3oc2=O)cs1` , reported ΔTm: 0.1

----------
Reported IC50 values for a set of compounds
System: A549
experiment.summary: Cytotoxicity against human A549 cells assessed as inhibition of cell growth incubated for 48 hrs by MTT assay
Format: functional, cell-based
test.conditions: A549, 48 h
Field format: number, assumed µM, no unit text.

Reference set, count: 3
item_smiles=Cc1ccc(-c2cc(C(F)(F)F)nn2-c2ccc3c4c(cccc24)C(=O)N(CCN(C)C)C3=O)cc1 property_label=IC50 units_text=µM meas_value=5.06
item_smiles=CCCOc1ccc(-c2cc(C(F)(F)F)nn2-c2ccc3c4c(cccc24)C(=O)N(CCN(C)C)C3=O)cc1 property_label=IC50 units_text=µM meas_value=5.06
item_smiles=COc1cccc(-c2cc(C(F)(F)F)nn2-c2ccc3c4c(cccc24)C(=O)N(CCN(C)C)C3=O)c1 property_label=IC50 units_text=µM meas_value=5.06

Param item: `CCCCOc1cc(OCCCC)cc(-c2cc(C(F)(F)F)nn2-c2ccc3c4c(cccc24)C(=O)N(CCN(C)C)C3=O)c1` ; param system: A549; output IC50: 5.06

Measured on A549, `COc1ccc(-c2cc(C(F)(F)F)nn2-c2ccc3c4c(cccc24)C(=O)N(CCN(C)C)C3=O)cc1` has a documented IC50 of 5.06

Measured on A549, `CN(C)CCN1C(=O)c2cccc3cc(NC(=O)CCCN)cc(c23)C1=O` has a documented IC50 of 4.7

Hey, A549 data for `COc1ccc(-c2cc(C(F)(F)F)nn2-c2ccc3c4c(cccc24)C(=O)N(CCN(C)C)C3=O)cc1OC` : IC50 came out at 5.06

Value (IC50, A549) for record `CN(C)CCN1C(=O)c2cccc3c(-n4nc(C(F)(F)F)cc4-c4ccccc4)ccc(c23)C1=O` = 5.06

Entry `CCCCOc1ccccc1-c1cc(C(F)(F)F)nn1-c1ccc2c3c(cccc13)C(=O)N(CCN(C)C)C2=O` : IC50 on A549 = 5.06

Hey, A549 data for `CN(C)CCN1C(=O)c2cccc3cc(NC(=O)CCNC(=O)C(Cl)Cl)cc(c23)C1=O` : IC50 came out at 4.7

Here `CCOc1ccccc1-c1cc(C(F)(F)F)nn1-c1ccc2c3c(cccc13)C(=O)N(CCN(C)C)C2=O` was tested on A549, and its IC50 came to 5.06

Lab entry: A549 assay, compound `CCCCOc1ccc(-c2cc(C(F)(F)F)nn2-c2ccc3c4c(cccc24)C(=O)N(CCN(C)C)C3=O)cc1` , IC50 = 5.06

----------
System: Malme-3M
experiment.summary: Cytotoxicity against human Malme-3M cells assessed as cell growth inhibition incubated for 48 hrs by sulforhodamine B reagent assay
Type: functional, cell-based
Parameter: IC50. Scope: all listed entries.
State just the number; it will be interpreted in nM.

item_smiles=O=C1c2cccc3cccc(c23)C(=O)N1CCCCOc1ccc(-c2nc3ccc(N4CCOCC4)cc3[nH]2)cc1 property_label=IC50 meas_value=110

Kindly review the next compound as well.
Record summary for `CN1CCN(c2ccc3nc(-c4ccc(OCCCN5C(=O)c6cccc7cccc(c67)C5=O)cc4)[nH]c3c2)CC1` : reported IC50 = 110

----------
system.name: Salmon testes DNA
experiment.summary: Binding affinity to salmon Testis DNA assessed as equilibrium binding constant by steady-state fluorescence spectroscopic analysis
test.conditions: Salmo salar
property.label: Kb

Guide cases for Kb, answers given:
item_smiles=C[n+]1ccc(CCN2C(=O)c3cccc4c(N)ccc(c34)C2=O)cc1 system_name="Salmon testes DNA" meas_value="1.38 10^5/M"
item_smiles=O=C1c2cccc3cccc(c23)C(=O)N1CC[n+]1ccccc1 system_name="Salmon testes DNA" meas_value="2 10^4/M"
item_smiles=Nc1ccc2c3c(cccc13)C(=O)N(CC[n+]1ccccc1)C2=O system_name="Salmon testes DNA" meas_value="1.38 10^5/M"

Now take the following compound into account.
Given item `CN(C)c1ccc2c3c(cccc13)C(=O)N(CCc1cc[n+](C)cc1)C2=O` , the value recorded as its Kb is 1.38 10^5/M

----------
Test system: U-937
experiment.summary: Cytotoxicity against human U-937 cells assessed as inhibition of cell growth incubated for 96 hrs by MTT assay
Type: functional, cell-based
test.conditions: U-937, 96 h
property.label: IC50 (nM)
Please reply with the bare figure in nM and do not write the unit itself.

The cases that follow already have their IC50 on record.
item_smiles=O=C1c2cccc3c([N+](=O)[O-])ccc(c23)C(=O)N1CCCl system_name=U-937 meas_value=300
item_smiles=O=C1c2cccc3c([N+](=O)[O-])ccc(c23)C(=O)N1CCCCl system_name=U-937 meas_value=300

Sure, the documented IC50 for `O=C1c2cccc3c([N+](=O)[O-])ccc(c23)C(=O)N1CCCO` is 700

The reported IC50 of the compound `O=C1c2cccc3c([N+](=O)[O-])ccc(c23)C(=O)N1CCO` was 700

----------
Tested on: OVCAR-4
experiment.summary: Cytotoxicity against human OVCAR-4 cells assessed as cell growth inhibition incubated for 48 hrs by sulforhodamine B reagent assay
Format: functional, cell-based
test.conditions: OVCAR-4, 48 h
The entries below are paired with their reported pIC50.
The value called pIC50 is obtained by taking minus log10 of the concentration in mol/L.

item_smiles=CN1CCN(c2ccc3nc(-c4ccc(OCCCN5C(=O)c6cccc7cccc(c67)C5=O)cc4)[nH]c3c2)CC1 system_name=OVCAR-4 meas_value=6.96

// below: pIC50 requested for another molecule
Just so you know, measured pIC50 for `O=C1c2cccc3cccc(c23)C(=O)N1CCCCOc1ccc(-c2nc3ccc(N4CCOCC4)cc3[nH]2)cc1` came out at 6.96
